Test system: 565232-114-T-J1-PDC complex spheroid viability
assay: Anticancer human tumor 565232-114-T-J1-PDC patient-derived bladder carcinoma cell line growth inhibition [CLK]; active = viability on the fitted dose curve at most 10% of control; inactive = the rest
experimental-conditions: second compound 3.16 µM; first compound 0.316 µM
Respond only with the outcome that fits, drawn from active, inactive

Examples with answers:
>  <molecule>
COC1C=CCC(C)C(C)S(=O)(=O)NC(=O)c2ccc3c(c2)N(CC2CCC21)CC1(CCCc2cc(Cl)ccc21)CO3 (stereo not given) + CNC(=O)c1ccc(Nc2nc(OC3CCCC3)c3c(-c4ccc5nc(C)oc5c4)c[nH]c3n2)c(OC)c1

>  <experimental-system>
565232-114-T-J1-PDC complex spheroid viability

>  <group>
active

$$$$
>  <molecule>
CCc1c2c(nc3ccc(O)cc13)-c1cc3c(c(=O)n1C2)COC(=O)[C@]3(O)CC + CN1CCN(c2cc(C(=O)Nc3cc4cc(-c5cnn(C)c5)ccc4cn3)ccn2)CC1

>  <experimental-system>
565232-114-T-J1-PDC complex spheroid viability

>  <group>
active

$$$$
>  <molecule>
Nc1ccccc1NC(=O)c1ccc(CNC(=O)OCc2cccnc2)cc1 + CN1CCN(c2cc(C(=O)Nc3cc4cc(-c5cnn(C)c5)ccc4cn3)ccn2)CC1

>  <experimental-system>
565232-114-T-J1-PDC complex spheroid viability

>  <group>
active

$$$$
>  <molecule>
CCN1CCN(Cc2ccc(Nc3ncc(F)c(-c4cc(F)c5nc(C)n(C(C)C)c5c4)n3)nc2)CC1 + CN1CCN(c2cc(C(=O)Nc3cc4cc(-c5cnn(C)c5)ccc4cn3)ccn2)CC1

>  <experimental-system>
565232-114-T-J1-PDC complex spheroid viability

>  <group>
active

$$$$
>  <molecule>
C=C(F)C(=O)N1CCN(c2nc(OCC3CCCN3C)nc3c2CCN(c2cccc4cccc(Cl)c24)C3)CC1CC#N (stereo not given) + CNC(=O)c1ccc(Nc2nc(OC3CCCC3)c3c(-c4ccc5nc(C)oc5c4)c[nH]c3n2)c(OC)c1

>  <experimental-system>
565232-114-T-J1-PDC complex spheroid viability

>  <group>
inactive

$$$$
>  <molecule>
C#Cc1c(F)ccc2cc(O)cc(-c3ncc4c(N5CC6CCC(C5)N6)nc(OCC56CCCN5CC(F)C6)nc4c3F)c12 (stereo not given) + CNC(=O)c1ccc(Nc2nc(OC3CCCC3)c3c(-c4ccc5nc(C)oc5c4)c[nH]c3n2)c(OC)c1

>  <experimental-system>
565232-114-T-J1-PDC complex spheroid viability

>  <group>
inactive

$$$$

Query molecule follows.
Please let me know the test result on file for CC(=O)O[C@H]1C(=O)[C@@]2(C)[C@H]([C@H](OC(=O)c3ccccc3)[C@]3(O)C[C@H](OC(=O)[C@H](O)[C@@H](NC(=O)c4ccccc4)c4ccccc4)C(C)=C1C3(C)C)[C@]1(OC(C)=O)CO[C@@H]1C[C@@H]2O + CNC(=O)c1ccc(Nc2nc(OC3CCCC3)c3c(-c4ccc5nc(C)oc5c4)c[nH]c3n2)c(OC)c1 .
inactive

* * *

Test system: 565232-114-T-J1-PDC complex spheroid viability
assay: Anticancer human tumor 565232-114-T-J1-PDC cell line growth inhibition [CLK];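 also: spheroids exposed to compounds for 7 days before readout; 100% = DMSO vehicle wells with luminescence normalized to vehicle control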
experimental-conditions: second compound 10 µM; first compound 10 µM; hits give low values
experimental-endpoint: viability, T/C (%)
# value in %; strip the unit string

>  <compound>
CC1COCCN1c1cc(C2(S(C)(=N)=O)CC2)nc(-c2ccnc3[nH]ccc23)n1 (configuration not stated) + CN1CCN(c2cc(C(=O)Nc3cc4cc(-c5cnn(C)c5)ccc4cn3)ccn2)CC1

>  <experimental-system>
565232-114-T-J1-PDC complex spheroid viability

>  <units-symbol>
%

>  <viability, T/C>
0.53

$$$$

Turning now to a further record.
Which viability, T/C is reported for this compound? CC(=O)O[C@H]1C(=O)[C@@]2(C)[C@H]([C@H](OC(=O)c3ccccc3)[C@]3(O)C[C@H](OC(=O)[C@H](O)[C@@H](NC(=O)c4ccccc4)c4ccccc4)C(C)=C1C3(C)C)[C@]1(OC(C)=O)CO[C@@H]1C[C@@H]2O + CNC(=O)c1ccc(Nc2nc(OC3CCCC3)c3c(-c4ccc5nc(C)oc5c4)c[nH]c3n2)c(OC)c1
27.7

* * *

Test system: 565232-114-T-J1-PDC complex spheroid viability
assay: Anticancer human tumor 565232-114-T-J1-PDC cell line growth inhibition [CLK];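 also: spheroids exposed to compounds for 7 days before readout; 100% = DMSO vehicle wells with luminescence normalized to vehicle control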
experimental-conditions: second compound 0.1 µM; first compound 0.0316 µM; hits give low values
experimental-endpoint: viability, T/C (%)
Your answer is read as %, so omit the unit and give the number.

>  <molecule>
CC(Nc1ccc2c(c1)OCCn1cc(N3C(=O)OCC3C(F)F)nc1-2)C(N)=O (stereo not given) + CNC(=O)c1ccc(Nc2nc(OC3CCCC3)c3c(-c4ccc5nc(C)oc5c4)c[nH]c3n2)c(OC)c1

>  <viability, T/C (%)>
35.1

$$$$
>  <molecule>
CC1(C)CCC(CN2CCN(c3ccc(C(=O)NS(=O)(=O)c4ccc(NCC5CCOCC5)c([N+](=O)[O-])c4)c(Oc4cnc5[nH]ccc5c4)c3)CC2)=C(c2ccc(Cl)cc2)C1 + CNC(=O)c1ccc(Nc2nc(OC3CCCC3)c3c(-c4ccc5nc(C)oc5c4)c[nH]c3n2)c(OC)c1

>  <viability, T/C (%)>
60.2

$$$$
>  <molecule>
CCN1CCN(Cc2ccc(Nc3ncc(F)c(-c4cc(F)c5nc(C)n(C(C)C)c5c4)n3)nc2)CC1 + CNC(=O)c1ccc(Nc2nc(OC3CCCC3)c3c(-c4ccc5nc(C)oc5c4)c[nH]c3n2)c(OC)c1

>  <viability, T/C (%)>
48.7

$$$$

// viability, T/C lookup, key: C=C(F)C(=O)N1CCN(c2nc(OCC3CCCN3C)nc3c2CCN(c2cccc4cccc(Cl)c24)C3)CC1CC#N (stereo not given) + CNC(=O)c1ccc(Nc2nc(OC3CCCC3)c3c(-c4ccc5nc(C)oc5c4)c[nH]c3n2)c(OC)c1
57.3

Please do the same for COc1ccc([C@@H](O)c2cc(-c3ncnc4cc(N5CCOCC5)ccc34)c(F)cc2Cl)nn1 + CN1CCN(c2cc(C(=O)Nc3cc4cc(-c5cnn(C)c5)ccc4cn3)ccn2)CC1 as well.
88.1

* * *

Tested on: 565232-114-T-J1-PDC complex spheroid viability
assay: Anticancer human tumor 565232-114-T-J1-PDC cell line growth inhibition [CLK];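 also: spheroids exposed to compounds for 7 days before readout; 100% = DMSO vehicle wells with luminescence normalized to vehicle control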
experimental-conditions: second compound 10 µM; first compound 0.1 µM; hits give low values
Source text: A high-throughput screen of multi-cell type tumor spheroids was designed to identify active combinations of […] and targeted small molecules. Complex spheroids include a stromal component modeled by human endothelial cells (HUVEC) and fibroblasts modeled by human mesenchymal stem cells (MSCs). […] Compounds. […] If the clinical Cmax for an agent had not been determined, the highest concentration tested was 10 microM. […]
One threshold, 10%, splits the recorded viability, T/C values: lower ones are MET, equal or higher ones are NOT MET.

Look over these answered cases.
>  <compound>
Nc1ccn(C2OC(CO)C(O)C2(F)F)c(=O)n1 (stereo not given) + CN1CCN(c2cc(C(=O)Nc3cc4cc(-c5cnn(C)c5)ccc4cn3)ccn2)CC1

>  <group>
MET

$$$$
>  <compound>
Nc1ccccc1NC(=O)c1ccc(CNC(=O)OCc2cccnc2)cc1 + CNC(=O)c1ccc(Nc2nc(OC3CCCC3)c3c(-c4ccc5nc(C)oc5c4)c[nH]c3n2)c(OC)c1

>  <group>
NOT MET

$$$$
>  <compound>
O=C(c1cc(Cc2n[nH]c(=O)c3ccccc23)ccc1F)N1CCN(C(=O)C2CC2)CC1 + CNC(=O)c1ccc(Nc2nc(OC3CCCC3)c3c(-c4ccc5nc(C)oc5c4)c[nH]c3n2)c(OC)c1

>  <group>
NOT MET

$$$$

Record CC(=O)O[C@H]1C(=O)[C@@]2(C)[C@H]([C@H](OC(=O)c3ccccc3)[C@]3(O)C[C@H](OC(=O)[C@H](O)[C@@H](NC(=O)c4ccccc4)c4ccccc4)C(C)=C1C3(C)C)[C@]1(OC(C)=O)CO[C@@H]1C[C@@H]2O + CN1CCN(c2cc(C(=O)Nc3cc4cc(-c5cnn(C)c5)ccc4cn3)ccn2)CC1 : is its viability, T/C strictly below 10%?
MET

Check CC(Nc1ccc2c(c1)OCCn1cc(N3C(=O)OCC3C(F)F)nc1-2)C(N)=O (stereo not given) + CNC(=O)c1ccc(Nc2nc(OC3CCCC3)c3c(-c4ccc5nc(C)oc5c4)c[nH]c3n2)c(OC)c1 too.
NOT MET

* * *

Test system: 565232-114-T-J1-PDC complex spheroid viability
assay: Anticancer human tumor 565232-114-T-J1-PDC cell line growth inhibition [CLK]; active = viability on the fitted dose curve at most 10% of control; inactive = the rest;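 also: spheroids exposed to compounds for 7 days before readout; 100% = DMSO vehicle wells with luminescence normalized to vehicle control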
experimental-conditions: second compound 3.16 µM; first compound 0.03 µM
The reply should be one of these categories: active, inactive

Study these solved cases before continuing.
>  <compound>
C=CC(=O)Nc1cc(Nc2nccc(-c3cn(C)c4ccccc34)n2)c(OC)cc1N(C)CCN(C)C + CNC(=O)c1ccc(Nc2nc(OC3CCCC3)c3c(-c4ccc5nc(C)oc5c4)c[nH]c3n2)c(OC)c1

>  <group>
inactive

$$$$
>  <compound>
C=CC(=O)Nc1cc(Nc2nccc(-c3cn(C)c4ccccc34)n2)c(OC)cc1N(C)CCN(C)C + CN1CCN(c2cc(C(=O)Nc3cc4cc(-c5cnn(C)c5)ccc4cn3)ccn2)CC1

>  <group>
active

$$$$
>  <compound>
NC(=O)C(=Cn1cnc(-c2cc(C(F)(F)F)cc(C(F)(F)F)c2)n1)c1cncnc1 + CN1CCN(c2cc(C(=O)Nc3cc4cc(-c5cnn(C)c5)ccc4cn3)ccn2)CC1

>  <group>
active

$$$$
>  <compound>
CC(C)CC(NC(=O)C(Cc1ccccc1)NC(=O)c1cnccn1)B(O)O (stereo unspecified) + CNC(=O)c1ccc(Nc2nc(OC3CCCC3)c3c(-c4ccc5nc(C)oc5c4)c[nH]c3n2)c(OC)c1

>  <group>
active

$$$$
>  <compound>
CC(C)CC(NC(=O)C(Cc1ccccc1)NC(=O)c1cnccn1)B(O)O (stereo unspecified) + CN1CCN(c2cc(C(=O)Nc3cc4cc(-c5cnn(C)c5)ccc4cn3)ccn2)CC1

>  <group>
active

$$$$

Outcome? NC(=O)C(=Cn1cnc(-c2cc(C(F)(F)F)cc(C(F)(F)F)c2)n1)c1cncnc1 + CNC(=O)c1ccc(Nc2nc(OC3CCCC3)c3c(-c4ccc5nc(C)oc5c4)c[nH]c3n2)c(OC)c1
inactive
